Target: Voltage-gated inwardly rectifying potassium channel KCNH2 (Homo sapiens) (UniProt Q12809)
Sequence (Q12809 whole entry, looked up): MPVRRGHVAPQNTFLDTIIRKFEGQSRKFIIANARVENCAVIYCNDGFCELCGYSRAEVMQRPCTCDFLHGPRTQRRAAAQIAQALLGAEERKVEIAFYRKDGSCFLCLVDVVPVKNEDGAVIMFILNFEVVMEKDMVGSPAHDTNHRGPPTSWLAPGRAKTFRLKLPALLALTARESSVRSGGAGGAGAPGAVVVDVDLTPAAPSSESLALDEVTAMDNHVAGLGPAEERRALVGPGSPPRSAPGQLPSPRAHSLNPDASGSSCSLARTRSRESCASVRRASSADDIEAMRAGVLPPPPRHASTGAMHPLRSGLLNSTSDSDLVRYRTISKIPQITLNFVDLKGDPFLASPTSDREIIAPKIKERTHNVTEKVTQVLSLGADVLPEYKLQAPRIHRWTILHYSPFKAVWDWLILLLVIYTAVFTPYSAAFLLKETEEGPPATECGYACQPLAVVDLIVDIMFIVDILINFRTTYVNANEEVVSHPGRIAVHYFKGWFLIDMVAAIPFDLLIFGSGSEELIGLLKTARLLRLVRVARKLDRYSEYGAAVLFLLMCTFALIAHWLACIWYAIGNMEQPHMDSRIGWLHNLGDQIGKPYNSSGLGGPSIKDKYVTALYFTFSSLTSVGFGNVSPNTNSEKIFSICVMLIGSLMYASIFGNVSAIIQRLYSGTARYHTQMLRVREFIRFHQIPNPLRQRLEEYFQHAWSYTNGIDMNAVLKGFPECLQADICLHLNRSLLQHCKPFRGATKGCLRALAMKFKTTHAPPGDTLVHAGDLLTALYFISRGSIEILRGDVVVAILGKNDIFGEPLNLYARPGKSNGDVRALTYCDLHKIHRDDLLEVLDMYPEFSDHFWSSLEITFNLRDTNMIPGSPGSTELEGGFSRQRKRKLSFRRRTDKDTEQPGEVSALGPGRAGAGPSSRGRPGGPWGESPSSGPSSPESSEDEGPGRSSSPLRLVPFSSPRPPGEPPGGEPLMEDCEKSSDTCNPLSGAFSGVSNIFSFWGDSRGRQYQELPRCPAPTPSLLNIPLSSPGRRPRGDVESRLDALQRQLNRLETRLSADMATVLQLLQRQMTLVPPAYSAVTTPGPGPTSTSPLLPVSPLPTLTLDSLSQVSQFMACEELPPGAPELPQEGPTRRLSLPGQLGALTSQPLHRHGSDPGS
Experiment: KCNH2 potassium channel function modulators, cell-based (AID 376);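 also: 0% = buffer alone and 100% = reference blocker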
Conditions: hERG-expressing cells, channel activity single-concentration screen; concentration not given here
Among all 2,000 compounds or so, about 250 (12%) were called active. The list comes from a sample in which actives are over-represented; it also holds close analogues and randomly drawn compounds.
In this section, each of the compounds is paired with its reported hERG blockade.
Supply the numeric figure in %, leaving out any unit text.

**Query** For O=C(O)CCc1nc2ccccc2[nH]1 , what is its reported hERG blockade?
**Result** -3.47

**Query** For CNCC(Cl)=NS(=O)(=O)c1ccc(C)cc1 , what is its reported hERG blockade?
**Result** 2.08

**Query** For O=C(O)CCCCn1ccc(=O)[nH]c1=O , what is its reported hERG blockade?
**Result** -28

**Query** For Clc1ccc(Cl)c(Nc2ccnc(SCc3ccccc3)n2)c1 , what is its reported hERG blockade?
**Result** -4.72

**Query** For O=C(O)C(Cc1ccccc1-c1ccccc1)C(=O)O , what is its reported hERG blockade?
**Result** 19.4

---

Target: Voltage-gated inwardly rectifying potassium channel KCNH2 (Homo sapiens)
Test: KCNH2 potassium channel function modulators, cell-based (AID 376);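 also: 0% = buffer alone and 100% = reference blocker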
Settings: hERG-expressing cells, channel activity single-concentration screen; concentration not given here
The campaign covered roughly 2,000 compounds. About 250 (12%) were called active. The sample holds actives, similar compounds and a random draw of the others, so the mix is not that of the screen.
experimental-readout: hERG blockade

Worked set:
compound	observed-value
O=c1c2ccccc2sc2c(CO)ccc(NCCN3CCCCC3)c12	46% (active)
O=C(O)CCC(=O)c1ccc2sc3ccccc3c2c1	-5.18% (inactive)

**Query** Give Voltage-gated inwardly rectifying potassium channel KCNH2 (Homo sapiens) hERG blockade for O=C(CSc1ncnc2nc[nH]c12)c1ccccc1
**Result** -4.94% (inactive)

**Query** Give Voltage-gated inwardly rectifying potassium channel KCNH2 (Homo sapiens) hERG blockade for O=C1Nc2ccccc2C1=Nc1ccc(S(=O)(=O)Nc2nccs2)cc1
**Result** -2.12% (inactive)

**Query** Give Voltage-gated inwardly rectifying potassium channel KCNH2 (Homo sapiens) hERG blockade for O=C(Oc1ccc2c(c1)CN(Cc1ccccc1)CO2)c1ccccc1
**Result** 13% (inactive)

---

Molecular target: Voltage-gated inwardly rectifying potassium channel KCNH2 (Homo sapiens) (UniProt Q12809)
Experiment: KCNH2 potassium channel function modulators, cell-based (AID 376);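 also: 0% = buffer alone and 100% = reference blocker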
Settings: hERG-expressing cells, channel activity single-concentration screen; concentration not given here
Hit rate of the full screen: of about 2,000 compounds, about 250 (12%) were called active. The sample as a whole holds a higher share of actives than the screen did.
In this section, each of the molecules is paired with its reported hERG blockade.
Supply the numeric figure in %, leaving out any unit text.

Worked set:
molecule	unit	observed-value
O=C(O)C1CCN(Cc2oc(CO)cc(=O)c2O)C1 (configuration not stated)	%	3.01
NCCNC(=S)S	%	5.6
CN(CC(=O)O)Cc1oc(CO)cc(=O)c1O	%	-29.8
CC(C(=O)c1ccncc1)c1ccccn1 (configuration not stated)	%	-1.76
CN(CC(=O)O)Cc1c(O)c(Cl)cc(Cl)c1Cl	%	-16.4
O=C(O)C(Cc1ccccc1)Cc1ccccc1	%	-4.1

**Query** For O=C(O)CC(Cc1ccc2c(c1)OCO2)C(=O)O (configuration not stated) , what is its reported hERG blockade?
**Result** 6.12

---

Molecular target: Voltage-gated inwardly rectifying potassium channel KCNH2 (Homo sapiens)
Test: KCNH2 potassium channel function modulators, cell-based (AID 376);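 also: 0% = buffer alone and 100% = reference blocker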
Conditions: hERG-expressing cells, channel activity single-concentration screen; concentration not given here
The whole screen tested about 2,000 compounds, of which about 250 (12%) were called active. What follows is part of a selection rich in actives, with near analogues and random picks from the rest.
// NB: equality with 10% counts as 0 (no); only hERG blockade strictly below is 1 (yes)

Example cases with answers are listed next.
compound	target-under-test	category
CC1CCC2(C(=O)O)CCC3(C)C(=CCC4C5(C)CC(O)C(O)C(C)(CO)C5C(O)CC43C)C2C1C (stereo unspecified)	Voltage-gated inwardly rectifying potassium channel KCNH2 (Homo sapiens)	0 (no)
c1ccc(-c2cc(-c3cc(-c4ccccn4)[nH]n3)n[nH]2)nc1	Voltage-gated inwardly rectifying potassium channel KCNH2 (Homo sapiens)	1 (yes)
Nc1ccc(S(=O)(=O)c2ccc(NC(=O)c3cccnc3)cc2)cc1	Voltage-gated inwardly rectifying potassium channel KCNH2 (Homo sapiens)	0 (no)
O=C(Nc1cccc(Cl)c1)Nn1cnnc1	Voltage-gated inwardly rectifying potassium channel KCNH2 (Homo sapiens)	0 (no)
Cn1c(=O)c2c(nc(C(=N)SCC(=O)O)n2C)n(C)c1=O	Voltage-gated inwardly rectifying potassium channel KCNH2 (Homo sapiens)	0 (no)

Alright, here's another compound for you.
**Query** Regarding Clc1ccccc1NN(Cc1ccncc1)c1ccccc1Cl , kindly confirm whether its hERG blockade is beneath 10%.
**Result** 1 (yes)

---

Target: Voltage-gated inwardly rectifying potassium channel KCNH2 (Homo sapiens)
Experiment: KCNH2 potassium channel function modulators, cell-based (AID 376);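 also: 0% = buffer alone and 100% = reference blocker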
Conditions: hERG-expressing cells, channel activity single-concentration screen; concentration not given here
About 250 (12%) of roughly 2,000 compounds were called active. Many of the other results were omitted from the sample, so actives are more common in it than they were.
experimental-readout: hERG blockade (%)
Supply the numeric figure in %, leaving out any unit text.

Worked set:
molecule	target-under-test	observed-value
Cc1ccc(S(=O)(=O)OC2CCN(C)CC2)cc1	Voltage-gated inwardly rectifying potassium channel KCNH2 (Homo sapiens)	-11.1
N=C(N)SC(c1ccccc1)c1ccccc1	Voltage-gated inwardly rectifying potassium channel KCNH2 (Homo sapiens)	22.5
COc1cc(CN2CCCCC2)cc2cc(C(=O)O)c(=O)oc12	Voltage-gated inwardly rectifying potassium channel KCNH2 (Homo sapiens)	4.84
COc1ccc(C[N+](C)(C)N)cc1OC	Voltage-gated inwardly rectifying potassium channel KCNH2 (Homo sapiens)	-25.5
O=C(O)c1nc2nc(Cl)c(Cl)nc2[nH]1	Voltage-gated inwardly rectifying potassium channel KCNH2 (Homo sapiens)	6.64

**Query** For COc1ccc(Br)c2c1CC(C(=O)O)CC2 (stereo not given) , what is its reported hERG blockade?
**Result** -1.02

**Query** For CC(=NNC1=NCCN1)c1cn(C2=NCCN2)nc1C , what is its reported hERG blockade?
**Result** 48.8

**Query** For CC(=O)OC1CCC2(C)C(=CCC3C2CCC2(C)C(c4cc(C(F)(F)F)n(C(C)=O)n4)CCC32)C1 (stereo not given) , what is its reported hERG blockade?
**Result** 20.6

**Query** For N#CNC(N)=Nc1ccc(Cl)cc1 , what is its reported hERG blockade?
**Result** -2.36

**Query** For CN(C)CCNCCN , what is its reported hERG blockade?
**Result** 4.72

**Query** For Nc1nc(SCc2ccccc2Cl)cc(C(=O)O)n1 , what is its reported hERG blockade?
**Result** -7.45

**Query** For CC(=O)OC1CCC2(C)C(=CCC3C2CCC2(C)C(C(C)C(=O)O)CCC32)C1 (stereo not given) , what is its reported hERG blockade?
**Result** -4.67

**Query** For Nc1nc(Cc2ccccc2)nc(Cc2ccccc2)c1-c1ccccc1 , what is its reported hERG blockade?
**Result** 29

**Query** For O=C(O)C(Cc1cc(I)c(O)c(I)c1)C1CCCCC1 (stereo not given) , what is its reported hERG blockade?
**Result** 35.2

**Query** For CCN(CC)COC(=S)S , what is its reported hERG blockade?
**Result** -4.52

**Query** For CCCCSCc1nc2nc(Cl)c(Cl)nc2[nH]1 , what is its reported hERG blockade?
**Result** -33.6

**Query** For CC(C)C12CCC3(CCC4C(C)(C(=O)O)CCCC4(C)C3C1)C(CN)C2 (stereo not given) , what is its reported hERG blockade?
**Result** -4.91

**Query** For NC(N)=NC(CC(=O)O)c1ccccc1 (stereo not given) , what is its reported hERG blockade?
**Result** 10.4

**Query** For OCCNC1c2cc(Cl)ccc2-c2c(Cl)cc(Cl)cc21 (stereo not given) , what is its reported hERG blockade?
**Result** 46.9

**Query** For CCOC(=O)Cn1c(C(F)(F)F)nc2nc(Cl)c(Cl)nc21 , what is its reported hERG blockade?
**Result** 13.4

**Query** For S=c1nc(-c2nc(=S)[nH]c3c2CCCCCCCCCC3)c2c([nH]1)CCCCCCCCCC2 , what is its reported hERG blockade?
**Result** 0.0358

**Query** For c1ccc(NCCSc2nc3ccccc3s2)cc1 , what is its reported hERG blockade?
**Result** -0.231
